# Tested on: MDA-MB-231
# assayProcedure: NCI tumour cell line growth inhibition, 48 h
Activity calls are given as the source filed them. No stated cut-off is given here; in the data, active = GI50 up to about 1.1 µM and inactive = higher.
Outcomes: class 1 for active, class 0 for inactive

                                   compound    group
0                            c1cc2n(n1)CCN2  class 0
1             CC1(C)OC[C@@H](O)[C@H](Br)CO1  class 0
2  C=C1CC(C#N)(C#N)[C@@H]2CC3CCCC3[C@H]12.C=C1CC(C#N)(C#N)[C@H]2C3CCCC3C[C@@H]12 (stereo not given in full)  class 0
3             Cc1ccc2c(O)cc(-c3ccccc3)nc2n1  class 1
4  CCN(CC)CCO/N=C1\CC[C@H]2[C@@H]3CC=C4C[C@@H](O)CC[C@]4(C)[C@H]3CC[C@]12C  class 0
5  FC(F)(F)C1(C(F)(F)F)C2CCC3(CC(F)(F)C(F)(F)S3)C1C2 (stereo not given)  class 0
6  CCCCCCCCCCCCCCCC(=O)N(CCCCCCCCCCC(=O)O)CC(O)C(O)C(OC1OC(CO)C(O)C(O)C1O)C(O)CO (stereo not given)  class 0
7       CN(Cc1ccccc1)c1cc(=O)n(C)c(=O)[nH]1  class 0
8                       Nc1nc2cc(Cl)ccc2n1N  class 0
9  CC12CCC(O)CC1CCC1C2CCC2(C)C(C(=O)CC(O)C(F)(F)F)CCC12 (stereo not given)  class 0

###

# Tested on: U-251
# assayProcedure: NCI tumour cell line growth inhibition, 48 h
Activity calls are given as the source filed them. Rule as the data show it: active = GI50 up to about 1.1 µM and inactive = higher. Starred links: 1 amine or outer side, 2 acyl side, 3 side chain; linkers in the order of their positions; H or OH if unused. Positions of bridges follow the written chain, without caps; N, C: chain ends. Non-standard residues stand in square brackets, D forms with d. Residues, ends and D or L forms follow the SMILES beside them. ξ: configuration not given here. X11 = CCC(C)C(N[*:1])C(O)CC(=O)O[C@H](C(=O)C(C)C(=O)[*:2])C(C)C; X10 = O=C([C@@H]1CC(O)CN1[*:1])[*:2]; NMeY = CN[C@@H](Cc1ccc(O)cc1)C(=O)O; ξNMeL = CNC(CC(C)C)C(=O)O; ξT = CC(O)C(N)C(=O)O
Outcomes: 1 for active, 0 for inactive

molecule	group
N=C(c1ccc2ccccc2c1)c1ccccc1Cc1ccccc1	0
CCN(CC)CCO/N=C1\CC[C@H]2[C@@H]3CC=C4C[C@@H](O)CC[C@]4(C)[C@H]3CC[C@]12C	0
CC(C)N1CCN(c2ccncc2S(=O)(=O)N2CCCCC2)CC1	0
O=C1c2cccnc2-c2nccc3ccnc1c23	1
Cc1c2cc[n+](C)cc2c(C)c2c1[nH]c1ccc(Cl)cc12	1
CC(C)(/N=N/C(C)(C)C(=O)NCCO)C(=O)NCCO	0
c1ccc(NC[Si]23OCCN(CCO2)CCO3)cc1	0
CCC(C)C1NC(=O)C(NC(=O)C(CC(C)C)N(C)C(=O)[C@@H]2CC(O)CN2)C(C)OC(=O)[C@H](Cc2ccc(OC)cc2)N(C)C(=O)[C@@H]2CCCN2C(=O)[C@H](CC(C)C)NC(=O)C(C)C(=O)[C@H](C(C)C)OC(=O)CC1O (stereo partly drawn) (H-[X10][ξNMeL][ξT][X11]LP[NMeY](Me); ester 3-C)	1

###

# Test system: HOP-92
# assayProcedure: NCI tumour cell line growth inhibition, 48 h
Activity calls are given as the source filed them. No stated cut-off is given here; in the data, active = GI50 up to about 1.1 µM and inactive = higher.
Outcomes: true (active), false (inactive)

In [3]: df
Out[3]:
                                   compound  group
0     CC(C)(/N=N/C(C)(C)C(=O)NCCO)C(=O)NCCO  false
1          CCCCCCCCCCCCCCCCCc1nc(C#N)c(N)o1  false
2  CCCC(=O)O[C@H]1C=C2C[C@@]34SS[C@]5(CC6=C[C@H](OC(C)=O)[C@@H]7O[C@@H]7[C@H]6N5C3=O)C(=O)N4[C@@H]2[C@H]2O[C@H]21   true
3  CC(C)N1CCN(c2ccncc2S(=O)(=O)N2CCCCC2)CC1  false
4  Nc1ccn(C2OC(COC(=O)C34CC5CC(CC(C5)C3)C4)C(O)C2O)c(=O)n1 (stereo unspecified)  false
5          CCOC(=O)/C(=C\c1ccc(F)cc1)C(C)=O  false

###

# Tested on: MDA-MB-231
# assayProcedure: NCI tumour cell line growth inhibition, 48 h
Activity calls are given as the source filed them. No stated cut-off is given here; in the data, active = GI50 up to about 1.1 µM and inactive = higher.
// reported GI50 per item
measuredMetric: GI50

                                   compound  targetundertest               result
0           O=C(NO)c1cccc(OCc2ccc(Br)cc2)c1       MDA-MB-231   12.3 µM (inactive)
1  O=C1NC(=O)/C(=C/c2ccc(S(=O)(=O)N/N=C\C(O)C(O)C(O)C(O)CO)cc2)N1 (centres undefined)       MDA-MB-231  > 100 µM (inactive)
2                 O=C(O)c1cccc(CN2CCCCC2)c1       MDA-MB-231  > 100 µM (inactive)
3      Cc1cccc(/C=N/NC(=S)N(C)CCc2ccccn2)n1       MDA-MB-231   1.16 µM (inactive)
4          CCOC(=O)/C(=C\c1ccc(F)cc1)C(C)=O       MDA-MB-231   22.6 µM (inactive)
5  CC[C@@H]1CN(C)[C@H]2Cc3c([nH]c4ccccc34)C(=O)C[C@H]1C2C(=O)OC (some centres undefined)       MDA-MB-231  > 100 µM (inactive)
6              Nc1nc(N)c2ncn(-c3ccccc3)c2n1       MDA-MB-231   64.9 µM (inactive)
7          CCCCCCCCCCCCCCCCCc1nc(C#N)c(N)o1       MDA-MB-231     21 µM (inactive)
8  COC(=O)c1c(O)ccc2c1c1c(n2Cc2ccccn2)C(=O)c2ccccc2C1=O       MDA-MB-231  > 100 µM (inactive)

###

// reported GI50 per item
# Tested on: LOX IMVI
# assayProcedure: NCI tumour cell line growth inhibition, 48 h
Activity calls are given as the source filed them. No stated cut-off is given here; in the data, active = GI50 up to about 1.1 µM and inactive = higher.
measuredMetric: GI50

                                   molecule  measuredmetric               result
0   CC(=O)OCCCCn1cnc2c(Cl)nc(Nc3ccccc3)nc21            GI50  > 100 µM (inactive)
1     CC(C)(/N=N/C(C)(C)C(=O)NCCO)C(=O)NCCO            GI50  > 100 µM (inactive)
2  CCOC(=O)c1c(-c2ccccc2)c(C(OC(c2ccccc2)c2c(-c3ccccc3)c(C(=O)OCC)n3ccccc23)c2ccccc2)c2ccccn12 (stereo not given)            GI50  > 100 µM (inactive)
3  Cc1ccc(NC(=O)/C(=N\Nc2ccc([N+](=O)[O-])cc2[N+](=O)[O-])C2C(=O)NC(=O)NC2=O)cc1            GI50  > 100 µM (inactive)
4  Clc1ccc(C2=CCN3CC=C(c4ccc(Cl)cc4)C23)cc1            GI50   8.34 µM (inactive)

###

# Test system: OVCAR-8
# assayProcedure: NCI tumour cell line growth inhibition, 48 h
Activity calls are given as the source filed them. Cut-off read from the data, not from the text of the source: active = GI50 up to about 1.1 µM and inactive = higher.
measuredMetric: GI50

                                    compound                result
 0  O=C1/C(=C/c2cccs2)N=C(c2ccccc2)N1C1Nc2cc3c(cc2S1)NC(N1C(=O)/C(=C/c2cccs2)N=C1c1ccccc1)S3 (stereo unspecified)    17.1 µM (inactive)
 1  C/C(CC(=O)Nc1ccccc1[N+](=O)[O-])=N\NC(N)=O   > 100 µM (inactive)
 2     COc1ccc2nc3cccc(C(=O)NCCN(C)C)c3nc2c1    1.46 µM (inactive)
 3   CNNC(=NS(=O)(=O)c1cc(C#N)c(NNC)cc1S)NNC    > 10 µM (inactive)
 4     Cc1ccc(S(=O)(=O)NN=C2CCCCCCCCCCC2)cc1   > 100 µM (inactive)
 5              Cn1c(S)nc2c(Cl)cc(Cl)cc2c1=O   > 100 µM (inactive)
 6  CC/C=C\C/C=C\C/C=C\CCCCCCCC(=O)OCC(O)CO (stereo unspecified)  > 67.8 µM (inactive)
 7                   CCc1nnc(CC)n1NCCCC(=O)O   > 100 µM (inactive)
 8        CCCSc1nc(COC(=O)NC)c(COC(=O)NC)n1C   > 100 µM (inactive)
 9  C=C(Nc1ccc(OC)cc1OC)C(=O)Cc1cccc[n+]1[O-]   > 100 µM (inactive)
10  Nc1nc(Cl)c(N)c(NCC2(CO)CCC(OCc3ccccc3)C2)n1 (stereo unspecified)   > 100 µM (inactive)
11      N=C(c1ccc2ccccc2c1)c1ccccc1Cc1ccccc1      44 µM (inactive)
12             COc1ccc2nc(-c3ccc(O)cc3)cn2c1    51.3 µM (inactive)
13  C[C@@H]1O[C@]2(O)[C@@H]3CCCN3S(=O)(=O)CCN2C1=O   > 100 µM (inactive)
14  CC1C(c2ccc(Cl)cc2)c2cc3c(cc2OC1N1CCOCC1)OCO3 (stereo unspecified)   > 100 µM (inactive)
15              O=C1c2cccnc2-c2nccc3ccnc1c23     0.755 µM (active)
16  CN(C(=O)Cc1cc(Cl)c(Cl)cc1NC(=O)CCCN)[C@H]1CCCC[C@@H]1N1CCCC1   > 100 µM (inactive)
17  O=C(O)c1ccccc1C1c2ccc(Cl)cc2Oc2cc(Cl)ccc21   > 100 µM (inactive)
18  COc1c2nc(CCl)n(C)c(=O)c2c(OC)c2c(=O)n(C)c(CCl)nc12    2.67 µM (inactive)
19  O=C(NCCOC(=O)CCCCCCCCC(=O)OCCNC(=O)NC(=O)c1cn(Cc2ccccc2)c(=O)[nH]c1=O)NC(=O)c1cn(Cc2ccccc2)c(=O)[nH]c1=O   > 100 µM (inactive)
20  C/C=C/C(C#N)O[Si](C)(C)C (stereo unspecified)   > 100 µM (inactive)
21    O=c1c([Se]c2coc3ccccc3c2=O)coc2ccccc12    12.7 µM (inactive)
22  CCC(=O)OC1CCn2c1nc1c2C(=O)C(C)=C(NC(C)=O)C1=O (stereo unspecified)     0.641 µM (active)
23               N#Cc1c(C(N)=O)ncn1Cc1ccccc1   > 100 µM (inactive)
24  COC(=O)[C@@]1(Cc2ccc(OC(C)=O)cc2)Cc2cc3ccccc3n2N1    50.8 µM (inactive)
25  Cc1ccc2c(=O)c(C(=O)Nn3c(C)csc3=S)c[nH]c2n1   > 100 µM (inactive)
26  COC(=O)C1CCC(=O)N1C(c1ccc2c(c1)OCO2)c1cc(OC)c(OC)c(OC)c1 (stereo unspecified)   > 100 µM (inactive)
27           Cc1c(C)c2ccc3oc4ccccc4c3c2oc1=O   > 100 µM (inactive)
28  Cc1ccc(OCC(=O)N2N=C(c3ccccc3)CC2(O)c2ccccc2)cc1 (stereo unspecified)    91.2 µM (inactive)
29  CCCCCCCCCCCCCCCCCCNC(=S)N/C=C1/C(=O)C=C(C)OC1=O    23.8 µM (inactive)
30  N#Cc1nn(-c2ccc(Cl)cc2)c(=N)c2c(N)n3nc(-c4ccccc4)cc3nc12      0.64 µM (active)
31  CC1=C2C(=C[C@@](C)(CO)[C@@H]2O)C(=O)[C@](C)(O)C12CC2    0.0133 µM (active)
32  C/N=C(\Nc1cccc(C(F)(F)F)c1)SCc1ccc(N=C=S)cc1    19.6 µM (inactive)
33  COc1cc(C2C(C#N)=C(N)OC3=C2CCS(=O)(=O)c2ccc(C)cc23)cc(OC)c1OC (stereo unspecified)   > 100 µM (inactive)
34  CN(C)CC(/C(Cc1ccccc1)=N\NC(=O)C[n+]1ccccc1)c1ccccc1 (stereo unspecified)    35.1 µM (inactive)
35  COc1cc(C2c3cc4c(cc3C(NCC(O)CO)C3COC(=O)[C@H]23)OCO4)cc(OC)c1OC (stereo partly specified)     0.429 µM (active)
36        C#CCOC(=O)C(=[N+]=[N-])C(=O)CC(C)C    > 10 µM (inactive)
37  Nc1ccc(C(=O)Nn2c(-c3ccccc3)nc3ccccc3c2=O)cc1   > 100 µM (inactive)
38  Cc1cc(O)nc(NN2C(Cl)C(=O)C2c2cccc([N+](=O)[O-])c2)n1 (stereo unspecified)    34.8 µM (inactive)
39  O=C(CC(=O)c1cccc2ccccc12)C(=O)Nc1ccc(Cl)cc1   > 100 µM (inactive)
40  CC1=C2c3c(C)ccc4ccc(C)c(c34)C2(O)C(C)C1=O (stereo unspecified)    19.4 µM (inactive)
41            O=C1c2n[nH]nc2C(=O)c2n[nH]nc21   > 100 µM (inactive)
42                       CCOCN1COCN/C1=N/C#N   > 100 µM (inactive)
43  O=C1c2cccc(NCCCNCCO)c2C(=O)c2cccc(NCCCNCCO)c21    1.86 µM (inactive)
44  COc1ccc(-c2c3c([nH]c(=S)c2C#N)CC(C)(C)CC3=O)cc1   > 100 µM (inactive)
45           O=C(NO)c1cccc(OCc2ccc(Br)cc2)c1    1.32 µM (inactive)

Data origin, for the record: ChEMBL document CHEMBL1201862
